Source: PubChem BioAssay AID192

System: BDF1 mice, B16 melanoma ip, median survival T/C
Assay: NCI In Vivo Anticancer Drug Screen. Data for tumor model B16 Melanoma (intraperitoneal) in B6D2F1 (BDF1) mice
Settings: endpoint: median survival time; dose: 0.5 mg/kg/injection; schedule: Q01DX009 (ip); vehicle: saline
Inconclusive results and toxic doses are left out. How the source made its calls: active means survival T/C of 150% or more; inactive means T/C below 125% in these data.
Respond using exactly one of the listed classes: active, inactive

Solved cases (2 shown):
1) CN(C)c1ccc(-c2cc[n+](C)cc2)cc1
inactive
2) COc1cc2c(c(OC)c1OC)-c1ccc(OC)c(=O)cc1[C@@H](NC(C)=O)CC2
inactive

Read the next record carefully.
What did the test return for CCC(=O)OCC(=O)[C@]1(O)Cc2c(O)c3c(c(O)c2[C@@H](OC2CC(N)C(O)C(C)O2)C1)C(=O)c1c(OC)cccc1C3=O (stereo partly drawn) ? active

====

System: BDF1 mice, B16 melanoma ip, median survival T/C
Assay: NCI In Vivo Anticancer Drug Screen. Data for tumor model B16 Melanoma (intraperitoneal) in B6D2F1 (BDF1) mice
Conditions: endpoint: median survival time; dose: 12.5 mg/kg/injection; schedule: Q01DX009 (ip); vehicle: saline
Toxic doses and inconclusive results are not listed. How the source made its calls: active means survival T/C of 150% or more; inactive means T/C below 125% in these data.
Respond using exactly one of the listed classes: true = active, false = inactive

Solved cases (2 shown):
1. C[N+](C)(C)C
false
2. CN(C)CCCN1c2ccccc2CCc2ccccc21
false

What did the test return for N#CC1CCCC[N-]1.[NH-]CC[N-]CC[NH-].[Pt+4] (configuration not stated) ? false

What did the test return for `NNCCc1ccccc1` ? false

What did the test return for `O=c1[nH]c(=O)n([C@H]2CCCO2)cc1F` ? false

What did the test return for NC1CC1c1ccccc1 (configuration not stated) ? false

What did the test return for CC(Cc1ccccc1)NC1CC2CCC1C2 (configuration not stated) ? false

What did the test return for NC1=NCN(C2OC(CO)C(O)C2O)C(=O)N1 (configuration not stated) ? false

What did the test return for CCN(CC)CCOC(=O)C(c1ccccc1)C1CCCCC1 (configuration not stated) ? false

What did the test return for `COc1ccc2c(Nc3ccc(NS(C)(=O)=O)cc3)c3ccccc3nc2c1` ? true

What did the test return for `CCCCC[C@H](CN(C)C)[C@H](O)/C=C/c1ccc(Cl)cc1` ? false

What did the test return for `NC(=S)N/N=C/c1cc(-c2cccc(N)c2)ccn1` ? true

What did the test return for `COc1cc(Cc2nccc3cc(OC)c(OC)cc23)c(C(C)=O)cc1OC` ? false

What did the test return for COc1cccc2c1C(=O)c1c(O)c3c(c(O)c1C2=O)C[C@@](O)(C(C)=O)C[C@@H]3OC1CC(NC(C)=O)C(O)C(C)O1 (some centres not stated) ? true

What did the test return for Nc1nc(=O)n(C2OC(CO)C(O)C2O)cc1F (configuration not stated) ? false

What did the test return for `NC(N)=NC1CCCC1` ? false

What did the test return for CC(N)C(O)c1cccc(O)c1 (configuration not stated) ? false

====

Tested on: BDF1 mice, B16 melanoma ip, median survival T/C
Experiment: NCI In Vivo Anticancer Drug Screen. Data for tumor model B16 Melanoma (intraperitoneal) in B6D2F1 (BDF1) mice
Conditions: endpoint: median survival time; dose: 6.25 mg/kg/injection; schedule: Q01DX009 (ip); vehicle: Klucel (hydroxypropylcellulose) (HPC); higher = longer survival
Toxic doses and inconclusive results are not listed.
parameter: T/C

Completed entries (count: 5):
1. CCN(CC)CCCC(C)NC(C)CCCN(CC)CC (stereo unspecified)
101 % of control
2. Cc1c2cccc(F)c2c[n+]2ccccc12
100 % of control
3. O=[N+]([O-])c1ccc(/C=N\Nc2ccc([N+](=O)[O-])cn2)cc1
97 % of control
4. CC(C)C(=O)NNCc1ccccc1
95 % of control
5. Cc1cnc(/C=N\NC(N)=S)c2cccc(N)c12
114 % of control

Below are 4 compounds. Give each one its T/C.
1. CCN(CC)C(=S)SSC(=S)N(CC)CC
2. CS(=O)(=O)OCc1c(O)c2c(c(O)c1COS(C)(=O)=O)C(=O)C=CC2=O
3. C=C1C(=O)OC2/C=C(\CO)C(OC(C)=O)CC(O)/C(C)=C/C(OC(=O)C(C)CC)C12 (stereo unspecified)
4. O=C1CCNC(=O)N1OS(=O)(=O)c1ccccc1

["105 % of control", "111 % of control", "109 % of control", "106 % of control"]

Below are 7 compounds. Give each one its T/C.
1. Nc1cc(NC(=O)c2ccc(Cl)cc2)ccc1S(=O)(=O)O
2. O=C(CCCN1CCC(n2c(=O)[nH]c3ccccc32)CC1)c1ccc(F)cc1
3. O=C1C=CC(=C(c2ccccc2)c2ccccc2)C=C1
4. C[n+]1ccc(Nc2ccc(NC(=O)c3ccc(Nc4cc[n+](C)c5ccc(N)cc45)cc3N)cc2)cc1
5. CCCCCCCCCCCCCCCCCCN(C)C
6. C[C@@H]1C[C@H]2[C@@H]3CCC4=CC(=O)C=C[C@]4(C)[C@@]3(F)[C@@H](O)C[C@]2(C)[C@@]1(O)C(=O)CO
7. COc1ccc(Cl)[n+]([O-])n1

["99 % of control", "92 % of control", "96 % of control", "109 % of control", "104 % of control", "107 % of control", "95 % of control"]

====

System: BDF1 mice, B16 melanoma ip, median survival T/C
Test: NCI In Vivo Anticancer Drug Screen. Data for tumor model B16 Melanoma (intraperitoneal) in B6D2F1 (BDF1) mice
Conditions: endpoint: median survival time; dose: 200.0 mg/kg/injection; schedule: Q01DX009 (ip); vehicle: Klucel (hydroxypropylcellulose) (HPC); higher = longer survival
Toxic doses and inconclusive results are not listed.
parameter: T/C

Completed entries (count: 10):
1. O=C(C(=O)c1cc(Br)ccc1O)c1cc(Br)ccc1O
106 % of control
2. COc1ccc(NC(=O)Nc2ccc(C)cc2C)cc1
93 % of control
3. Cc1c(Cl)cccc1NC(=O)c1ccccc1Cl
93 % of control
4. COC(=O)c1cc([N+](=O)[O-])cc2ccccc12
94 % of control
5. O=C(Nc1ccccc1)OCCOc1ccc(Cl)cc1Cl
114 % of control
6. COc1ccc(N=NN(C(C)=O)c2ccccc2)cc1
102 % of control
7. c1cc2c(c(NC3=NCCCS3)c1)CCCC2
96 % of control
8. CC1NC(=O)NC1=O (configuration not stated)
100 % of control
9. CC1(C)C2CCC1(C)C(COC(=O)c1cc([N+](=O)[O-])cc([N+](=O)[O-])c1)C2 (configuration not stated)
93 % of control
10. O=S(=O)(Nc1ccccc1)c1ccc(C2CC3(Cl)C(Cl)=C(Cl)C2(Cl)C3(Cl)Cl)cc1 (configuration not stated)
87 % of control

Below are 2 compounds. Give each one its T/C.
1. CCCCOC(=O)C(C)OC(=O)CCC (configuration not stated)
2. O=C(CCCl)NC(Cc1ccccc1)c1ccccc1 (configuration not stated)

["122 % of control", "96 % of control"]

====

System: BDF1 mice, B16 melanoma ip, median survival T/C
Assay: NCI In Vivo Anticancer Drug Screen. Data for tumor model B16 Melanoma (intraperitoneal) in B6D2F1 (BDF1) mice
Conditions: endpoint: median survival time; dose: 0.78 mg/kg/injection; schedule: Q01DX009 (ip); vehicle: saline with Tween-80; higher = longer survival
Inconclusive results and toxic doses are left out.
parameter: T/C

Completed entries (count: 3):
1. Cc1ccc(Cl)cc1NC(=O)Nc1ccccc1Cl
88 % of control
2. Cc1c2cccc(Sc3ccccc3)c2c2c3c(cccc13)[S+](c1ccccc1)C2 (stereo not given)
104 % of control
3. C=CC(=O)N1CN(C(=O)C=C)CN(C(=O)C=C)C1
110 % of control

Below are 2 compounds. Give each one its T/C.
1. CC(=O)O[C@H]1C(=O)O[C@@H]2C[C@H]3C(C)=CC(=O)[C@@H](O)[C@]3(C)[C@H]3[C@@]4(O)OC[C@]32[C@@H]1[C@@H](C)[C@H]4O
2. O=c1cc(O)c1=O

105 % of control
106 % of control

====

Tested on: BDF1 mice, B16 melanoma ip, median survival T/C
Test: NCI In Vivo Anticancer Drug Screen. Data for tumor model B16 Melanoma (intraperitoneal) in B6D2F1 (BDF1) mice
Details: endpoint: median survival time; dose: 100.0 mg/kg/injection; schedule: Q04DX003 (ip); vehicle: saline with Tween-80; higher = longer survival
Inconclusive results and toxic doses are left out.
Consider the following compounds; for each one, report its T/C.

Completed entries (count: 5):
1. CCc1occ(C(=O)OC)c1C(=O)OC
102 % of control
2. CC(C)(C)OC(=O)N1CCCC1C(=O)Oc1ccc([N+](=O)[O-])cc1 (configuration not stated)
104 % of control
3. CCC(=O)O[C@H]1CC[C@H]2[C@@H]3[C@@H](C)CC4=CC(=O)CC[C@]4(C)[C@H]3CC[C@]12C
100 % of control
4. CCN(C(=O)Nc1ccccc1)c1ccccc1
94 % of control
5. O=C(OC1CC2CC=CC21)c1ccc([N+](=O)[O-])cc1 (configuration not stated)
100 % of control

Below are 3 compounds. Give each one its T/C.
1. O=C(O)/C(Br)=C/c1ccccc1
2. CCOC(=O)C(=CN1CCOCC1)C(=O)OCC
3. CC(=O)Nc1cc2c(cc1[N+](=O)[O-])-c1ccccc1C2O (configuration not stated)

["112 % of control", "100 % of control", "110 % of control"]

Below are 4 compounds. Give each one its T/C.
1. OC(CCCCl)CC(O)(C(F)(F)F)C(F)(F)F (configuration not stated)
2. C1=CC2C=CC12 (configuration not stated)
3. CC(C)=CN1CCCCC1
4. COc1cc2c(cc1OC)C(c1ccc(O)c(O)c1)CNC2 (configuration not stated)

115 % of control
89 % of control
90 % of control
89 % of control
